# procedure.text: qHTS Assay for Lipid Storage Modulators (AID 1519)
# run.conditions: Drosophila S3 cells, BODIPY lipid droplet/cell ratio, laser cytometry; measured here: lipid channel max response; cells loaded with oleic acid
Results filed as inconclusive are left out.
Property: max response; scope: individual compounds
Write down the numeric answer in % and omit the unit.

compound: COc1cc(O)c(C(=O)c2ccccc2)cc1O
max response (%): 11.7
--
compound: O=c1[nH]c(=O)n([C@@H]2C[C@H](O)[C@H](CO)O2)cc1C(F)(F)F
max response (%): -7.97

// recorded max response for CCOC(=O)CCCCCCCCCCCCC1C=CCC1 (stereo not given) : 10.7

// recorded max response for CC(=O)NC(CCC(=O)O)C(=O)O (stereo not given) : 27.6

// recorded max response for O=C(O)c1ccc2c(c1)OCO2 : 22.7

// recorded max response for O=C(Nc1ccccc1)OC[C@H](CN1CCCCC1)OC(=O)Nc1ccccc1 : -11

----------
# tgt: Rap guanine nucleotide exchange factor 4 (Homo sapiens) (UniProt Q8WZA2)
# Sequence (Q8WZA2 whole entry, looked up): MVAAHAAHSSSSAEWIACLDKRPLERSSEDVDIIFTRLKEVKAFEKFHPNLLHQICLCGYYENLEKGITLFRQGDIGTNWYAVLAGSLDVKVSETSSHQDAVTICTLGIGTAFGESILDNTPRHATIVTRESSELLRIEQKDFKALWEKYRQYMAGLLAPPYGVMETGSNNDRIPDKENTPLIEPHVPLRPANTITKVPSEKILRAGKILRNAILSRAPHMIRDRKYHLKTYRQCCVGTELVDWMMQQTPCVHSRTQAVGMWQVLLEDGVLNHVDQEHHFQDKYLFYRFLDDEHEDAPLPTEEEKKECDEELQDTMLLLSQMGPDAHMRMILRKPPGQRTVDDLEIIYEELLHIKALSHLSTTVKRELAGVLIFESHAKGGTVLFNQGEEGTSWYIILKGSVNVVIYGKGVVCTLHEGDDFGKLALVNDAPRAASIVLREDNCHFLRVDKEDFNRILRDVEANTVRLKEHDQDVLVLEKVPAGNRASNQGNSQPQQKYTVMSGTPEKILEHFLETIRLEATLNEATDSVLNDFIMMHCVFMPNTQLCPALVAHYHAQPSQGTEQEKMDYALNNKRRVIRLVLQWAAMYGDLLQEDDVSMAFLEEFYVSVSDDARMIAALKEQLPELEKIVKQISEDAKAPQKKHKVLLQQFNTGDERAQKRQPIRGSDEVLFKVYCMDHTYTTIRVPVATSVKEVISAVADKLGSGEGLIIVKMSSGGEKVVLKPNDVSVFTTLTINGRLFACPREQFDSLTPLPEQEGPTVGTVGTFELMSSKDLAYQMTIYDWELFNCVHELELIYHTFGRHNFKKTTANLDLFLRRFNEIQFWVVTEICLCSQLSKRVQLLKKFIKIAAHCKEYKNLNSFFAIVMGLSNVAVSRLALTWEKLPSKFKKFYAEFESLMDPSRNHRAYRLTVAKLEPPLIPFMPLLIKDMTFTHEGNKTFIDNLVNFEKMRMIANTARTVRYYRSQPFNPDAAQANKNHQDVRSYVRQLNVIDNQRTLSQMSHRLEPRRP
# procedure.text: Confirmatory qHTS for antagonist of cAMP-regulated guanine nucleotide exchange factor 4 (EPAC2) (AID 1645885); also: nearly all actives have a fitted effect of over 25% in size
# run.conditions: EPAC2 Rap1B-BODIPY-GDP exchange fluorescence, biochemical; series mostly up to 12.7 µM
Results filed as inconclusive are left out. Active and inactive are the calls of the source. Calls follow the shape of the dose curve; as a rule, active = well fitted inhibition curve with a large enough effect; inconclusive = small, poorly fitted or top-dose-only effect; inactive = no such curve, though single readings can be large or run the other way.
Outcome field: choose from active, inactive

Q) Recorded test outcome, item COc1cc(CC(=O)Nc2ccccc2N2CCCCC2)cc(OC)c1OC
A) inactive

Q) Recorded test outcome, item CCN(CC)S(=O)(=O)c1cc(NC(=O)Cn2ncc(Cl)c(Cl)c2=O)ccc1C
A) inactive

Q) Recorded test outcome, item COc1ccccc1/C=C/C=C1\Oc2c(ccc(O)c2CN2CCN(CCO)CC2)C1=O
A) active

Q) Recorded test outcome, item COc1ccc(-c2nn(-c3ccccc3)cc2/C=N/n2cnnc2)cc1OC
A) inactive

Q) Recorded test outcome, item CC1C/C(=C/c2cccn2C)C(=O)/C(=C/c2cccn2C)C1 (stereo not given)
A) inactive

Q) Recorded test outcome, item COc1ccccc1-c1ccc(Nc2cccc(C(F)(F)F)c2)nn1
A) inactive

Q) Recorded test outcome, item CC(C)(C)c1ccc(-c2nc(SCC(=O)Nc3ccc(Cl)cc3)[nH]c(=O)c2C#N)cc1
A) inactive

----------
# System: DIV17
# procedure.text: qHTS profiling for inhibitors of Plasmodium falciparum proliferation (AID 504749); also: nearly all actives have a fitted effect of over 60% in size
# run.conditions: P. falciparum in erythrocytes, SYBR Green DNA, 72 h; series mostly up to 12.8 µM
Inconclusive results are not listed. Activity calls are given as the source filed them. Calls come from the whole dose curve; as a rule, active = well fitted inhibition curve with a large enough effect; inconclusive = small, poorly fitted or top-dose-only effect; inactive = flat fitted curve, though single readings scatter.
Outcome field: choose from active, inactive

Q) Recorded test outcome, item NC(CCC(=O)N[C@@H](CS)C(=O)NCC(=O)O)C(=O)O (some centres not stated)
A) active

Q) Recorded test outcome, item C=Cc1c(C)c2cc3nc(cc4[nH]c(cc5nc(cc1[nH]2)C(C)=C5CCC(=O)O)c(CCC(=O)OC)c4C)[C@@]1(C)C3=CC=C(C(=O)OC)[C@H]1C(=O)OC (tested in a mixture with another compound)
A) active

----------
# procedure.text: qHTS Assay for Lipid Storage Modulators (AID 1519); as to activity change, negative = inhibition: % is scaled to controls: 0 for no effect and ±100 for the full control effect
# run.conditions: Drosophila S3 cells, BODIPY lipid droplet/cell ratio, laser cytometry; at 57.5 µM (top of the series); cells loaded with oleic acid
Results filed as inconclusive are left out.
Property: activity change, negative = inhibition; scope: individual compounds
Write down the numeric answer in % and omit the unit.

// recorded activity change, negative = inhibition for COc1cc(-c2coc3cc(O[C@H]4OC(CO)C(O)C(O)C4O)c(OC)c(O)c3c2=O)cc(O)c1OC (stereo partly drawn) : 7.43

// recorded activity change, negative = inhibition for CC(C)=CC1C(CO)C1(C)C (stereo not drawn) : 4.52

// recorded activity change, negative = inhibition for CC(=O)OC1CC2C(C)(C)C(=O)C=C[C@]2(C)C2CC[C@@]3(C)C(c4ccoc4)OC(=O)C4O[C@@]43[C@]12C (stereo partly drawn) : -1.71

// recorded activity change, negative = inhibition for CNC1C(O)C(O)C(CO)O[C@H]1OC1C(O[C@@H]2C(O)C(O)[C@@H](N=C(N)N)C(O)C2N=C(N)N)OC(C)[C@]1(O)C=O (stereo partly drawn) : 11.1

// recorded activity change, negative = inhibition for CC1=C(/C=C/C(C)=C/C=C/C(C)=C/C=C/C=C(C)/C=C/C=C(C)/C=C/C2=C(C)C(=O)C(O)CC2(C)C)C(C)(C)CC(O)C1=O (stereo not drawn) : 2.55

// recorded activity change, negative = inhibition for CC(C)c1c(O)c(-c2cc3c(c(C(C)C)c2O)CCC2C(C)(C)CCC[C@@]32C)cc2c1CCC1C(C)(C)CCC[C@@]21C (stereo partly drawn) : 8.62

// recorded activity change, negative = inhibition for CC(C)CCCC(C)C1CCC2C3CC=C4CC(=O)CC[C@@]4(C)C3CC[C@@]12C (stereo partly drawn) : 3.79

// recorded activity change, negative = inhibition for COc1ccc2c(c1)OCC(Cc1ccc(OC)c(OC)c1)C2O (stereo not drawn) : 6.38

Origin of measurements: PubChem BioAssay (NCATS)
